# TARGET ENTITY: α1 adrenergic receptors
# MEASUREMENT NOTES: Binding to α1 adrenergic receptors (3H-prazosin), rat cerebral cortex homogenate
# ASSAY CONDITIONS: read-out: SPECIFIC BINDING, Kl, α 1; 3H-prazosin, rat cerebral cortex homogenate; average of three assays
OUTCOME MEASURE: log10 Ki (log10 of the value in nM)
Use the decimal logarithm of Ki (nM).

In the examples that follow, each entry is paired with its recorded log10 Ki.
c1ccc2c(c1)CC1c3ccccc3CCN1C2 (single isomer, unassigned) [Berbine (-)]: 2.33
Oc1ccc2c(c1)CCN1Cc3ccccc3CC21 (single isomer, unassigned; (-)) [(-) STB 4]: 2.66
COC(=O)[C@@H]1[C@H]2C[C@H]3c4[nH]c5ccccc5c4CCN3C[C@@H]2CC[C@@H]1O: 2.51

Input line: Requested read-out: log10 Ki. Entry: COc1cc2c(cc1OC)CN1CCc3cc(O)ccc3C1C2 (single isomer, unassigned; (+)) [(+) STB 6]
Output line: 3.47

Input line: Next record, please: c1ccc2c(c1)CC1c3ccccc3CCN1C2 (single isomer, unassigned) [Berbine (+)]
Output line: 3.67

Input line: Next record, please: Oc1ccc2c(c1)CCN1Cc3ccccc3CC21 (single isomer, unassigned; (+)) [(+) STB 4]
Output line: 3.09

Input line: Next record, please: COc1cc2c(cc1OC)CN1CCc3cc(O)ccc3C1C2 (single isomer, unassigned; (-)) [(-) STB 6]
Output line: 2.62
